pKi: −log10 of the molar value.
// pKi collected for Cholinesterase (Homo sapiens)
attribute measured: pKi

>>> recorded_result("CC(C)(C)OC(=O)N[C@@H](Cc1c[nH]c2ccccc12)C(=O)NCCNc1c2c(nc3ccccc13)CCCC2")
8.73
>>> recorded_result("N[C@@H](Cc1c[nH]c2ccccc12)C(=O)NCCC(=O)Nc1c2c(nc3ccccc13)CCCC2")
6.76
>>> recorded_result("N[C@@H](CCC(=O)NCCNc1c2c(nc3ccccc13)CCCC2)C(=O)NCCNc1c2c(nc3ccccc13)CCCC2")
7.60
>>> recorded_result("CC(C)(C)OC(=O)N[C@@H](Cc1c[nH]c2ccccc12)C(=O)NCCC(=O)Nc1c2c(nc3ccccc13)CCCC2")
6.35
>>> recorded_result("N[C@@H](Cc1ccccc1)C(=O)NCC(=O)Nc1c2c(nc3ccccc13)CCCC2")
6.15
>>> recorded_result("O=C(NCCCCCNc1c2c(nc3ccccc13)CCCC2)[C@@H]1CCCN1CCNc1c2c(nc3ccccc13)CCCC2")
8.75
>>> recorded_result("N[C@@H](Cc1ccc2ccccc2c1)C(=O)NCC(=O)Nc1c2c(nc3ccccc13)CCCC2")
6.60
>>> recorded_result("O=C(CNC(=O)[C@@H]1Cc2ccccc2CN1)Nc1c2c(nc3ccccc13)CCCC2")
6.24

// provenance: ChEMBL document CHEMBL1141710
